tgt: T1, 6His-Fc-FGFR4 (human, UniProt P22455 144-369)
T1 construct: not shown: 6His tag and Fc as named in '6His-Fc-FGFR'
T1 sequence: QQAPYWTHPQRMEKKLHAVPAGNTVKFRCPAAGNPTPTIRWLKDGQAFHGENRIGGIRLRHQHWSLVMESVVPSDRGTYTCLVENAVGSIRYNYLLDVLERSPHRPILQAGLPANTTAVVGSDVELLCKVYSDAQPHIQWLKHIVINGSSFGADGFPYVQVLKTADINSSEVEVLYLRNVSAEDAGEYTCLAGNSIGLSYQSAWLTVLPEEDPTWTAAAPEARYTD
procedure details: competition ELISA, blocks 6His-Fc-FGFR4 binding to coated FGF2
// NB: equality with 20 nM counts as Not fulfilled; only IC50 strictly below is Fulfilled

I wonder whether Ab15 (antibody, human IgG2, kappa, V domains shown, Format in each assay not spelled out; also called FGF#26) VH: EVQLLESGGGVVQPGRSLRLSCAASGFTFSSYAMHWVRQAPGKGLEWVAVISYDGSNKYYADSVKGRFTISRDNSKNTLSLQMNSLRVEDTAIYYCVRGAGRGYTYGPDGFDIWGQGTMVTVSS VL: DIVMTQTPLSLSVTPGQPASISCTSSRSLLHSDGKTYVYWYVQKSGQPPQLLIYELSNRFSGVPDRFSGSGSRTDFTLKISRVEAEDVGVYYCMQYIEAPLTFGGGTKVEIKR has IC50 below 20 nM. Can you tell?
Not fulfilled

I wonder whether Ab23 (antibody, human IgG2, V domains shown, Format in the assays not spelled out) VH: EVQLLESGGGVVQPGRSLRLSCAASGFTFSSYAMHWVRQAPGKGLEWVAVISYDGSNKYYADSVKGRFTISRDNSKNTLSLQMNSLRVEDTAIYYCVRGAGRGLTYGPDGFDIWGQGTMVTVSS VL: DIVMTQTPLSLSVTPGQPASISCKSSRSLLHSDGKTYVYWYVQKSGQPPQLLIYELSNRFSGVPDRFSGSGSRTDFTLKISRVEAEDVGVYYCMQYIEAPLTFGGGTKVEIK has IC50 below 20 nM. Can you tell?
Not fulfilled

I wonder whether Ab89 (antibody, human IgG2, kappa, V domains shown, format in the assays not spelled out) VH: EVQLLESGGGVVQPGRSLRLSCAASGFTFSSYAMHWVRQAPGKGLEWVAVISYDGSNKYYADSVKGRFTISRDNSKNTLSLQMNSLRVEDTAIYYCVRGAGRGFPYGPDGFDIWGQGTMVTVSS VL: DIVMTQTPLSLSVTPGQPASISCRSSRSLLHSDGKTYVYWYVQKSGQPPQLLIYELSNRFSGVPDRFSGSGSRTDFTLKISRVEAEDVGVYYCMQYIEVPLTFGGGTKVEIKR has IC50 below 20 nM. Can you tell?
Not fulfilled

I wonder whether Ab25 (antibody, human IgG2, kappa, V domains shown, format in the assays not spelled out) VH: EVQLLESGGGVVQPGRSLRLSCAASGFTFSSYAMHWVRQAPGKGLEWVAVISYDGSNKYYADSVKGRFTISRDNSKNTLSLQMNSLRVEDTAIYYCVRGAGLGFTYGPDGFDIWGQGTMVTVSS VL: DIVMTQTPLSLSVTPGQPASISCKSSRSLLHSDGKTYVYWYVQKSGQPPQLLIYELSNRFSGVPDRFSGSGSRTDFTLKISRVEAEDVGVYYCMQYIEAPLTFGGGTKVEIKR has IC50 below 20 nM. Can you tell?
Fulfilled

I wonder whether Ab83 (antibody, human IgG2, kappa, V domains shown, format in the assays not spelled out) VH: EVQLLESGGGVVQPGRSLRLSCAASGFTFSSYAMHWVRQAPGKGLEWVAVISYDGSNKYYADSVKGRFTISRDNSKNTLSLQMNSLRVEDTAIYYCVRGAGRGFPYGPDGFDIWGQGTMVTVSS VL: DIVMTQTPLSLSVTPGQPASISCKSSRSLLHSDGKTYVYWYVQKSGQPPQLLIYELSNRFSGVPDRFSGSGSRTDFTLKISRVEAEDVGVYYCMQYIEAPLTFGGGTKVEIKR has IC50 below 20 nM. Can you tell?
Not fulfilled

I wonder whether Ab90 (antibody, human IgG2, kappa, V domains shown, format in the assays not spelled out) VH: EVQLLESGGGVVQPGRSLRLSCAASGFTFSSYAMHWVRQAPGKGLEWVAVISYDGSNKYYADSVKGRFTISRDNSKNTLSLQMNSLRVEDTAIYYCVRGAGRGYPYGPDGFDIWGQGTMVTVSS VL: DIVMTQTPLSLSVTPGQPASISCTSSRSLLHSDGKTYVYWYVQKSGQPPQLLIYELSNRFSGVPDRFSGSGSRTDFTLKISRVEAEDVGVYYCMQYVEVPLTFGGGTKVEIKR has IC50 below 20 nM. Can you tell?
Fulfilled

I wonder whether Ab49 (antibody, human IgG2, kappa, V domains shown, format in the assays not spelled out) VH: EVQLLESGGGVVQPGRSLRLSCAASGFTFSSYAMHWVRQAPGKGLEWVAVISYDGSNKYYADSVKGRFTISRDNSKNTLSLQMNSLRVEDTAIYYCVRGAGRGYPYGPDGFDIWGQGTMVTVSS VL: DIVMTQTPLSLSVTPGQPASISCRSSRSLLHSDGKTYVYWYVQKSGQPPQLLIYELSNRFSGVPDRFSGSGSRTDFTLKISRVEAEDVGVYYCMQYIEAPLTFGGGTKVEIKR has IC50 below 20 nM. Can you tell?
Fulfilled

I wonder whether Ab92 (antibody, human IgG2, kappa, V domains shown, format in the assays not spelled out) VH: EVQLLESGGGVVQPGRSLRLSCAASGFTFSSYAMHWVRQAPGKGLEWVAVISYDGSNKYYADSVKGRFTISRDNSKNTLSLQMNSLRVEDTAIYYCVRGAGHGFPTGPDGFDIWGQGTMVTVSS VL: DIVMTQTPLSLSVTPGQPASISCRSSRSLLHSDGKTYVYWYVQKSGQPPQLLIYELSNRFSGVPDRFSGSGSRTDFTLKISRVEAEDVGVYYCMQYVEAPLTFGGGTKVEIKR has IC50 below 20 nM. Can you tell?
Fulfilled

I wonder whether Ab43 (antibody, human IgG2, kappa, V domains shown, format in the assays not spelled out) VH: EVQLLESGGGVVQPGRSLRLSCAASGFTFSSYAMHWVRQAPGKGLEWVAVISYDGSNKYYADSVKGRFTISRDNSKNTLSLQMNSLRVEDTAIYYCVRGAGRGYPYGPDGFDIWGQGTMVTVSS VL: DIVMTQTPLSLSVTPGQPASISCRSSRSLLHSDGKTYVYWYVQKSGQPPQLLIYELSNRFSGVPDRFSGSGSRTDFTLKISRVEAEDVGVYYCMQYIEAPLTFGGGTKVEIKR has IC50 below 20 nM. Can you tell?
Fulfilled

The reported measurements were obtained from patent US20180244785A1.
